# measurement_notes: drug combination growth inhibition, ovarian cancer – cell-based, oncology-focused library, rucaparib conditional, profiling panel (AID 1508598)
# stated_conditions: patient-derived ovarian cancer cells, CellTiter-Glo viability, 144 h; at 0.313 µM; OCI-C5x cells; with rucaparib 10 µM; stronger effect = lower value; 100% = cells with rucaparib alone
Attribute: viability
Record the value in %, omitting the unit from your answer.

Guide cases for viability, answers given:
molecule_smiles	measured_quantity	unit_annotation	observed
Cc1cccc(Nc2nc(-c3ccncc3)cs2)c1	viability	%	115
Cc1ccc(F)c(NC(=O)Nc2ccc(-c3cccc4[nH]nc(N)c34)cc2)c1	viability	%	113

Record request: viability value, item CNC(=O)c1ccc(N2C(=S)N(c3ccc(C#N)c(C(F)(F)F)c3)C(=O)C2(C)C)cc1F
108

* * *

Attribute: viability
# measurement_notes: drug combination growth inhibition, ovarian cancer – cell-based, oncology-focused library, rucaparib conditional, profiling panel (AID 1508598)
# stated_conditions: patient-derived ovarian cancer cells, CellTiter-Glo viability, 144 h; at 1.25 µM; OCI-C5x cells; without rucaparib; stronger effect = lower value
Record the value in %, omitting the unit from your answer.

compound	unit_annotation	observed
O=C(NC1CCNCC1)c1[nH]ncc1NC(=O)c1c(Cl)cccc1Cl	%	13.9
Cc1cc(CS(=O)(=O)c2ccccc2)cc(OCc2ccc(CN3CCC[C@@H]3CO)cc2)c1	%	123
OCCn1cc(-c2cnc3nnn(Cc4ccc5ncccc5c4)c3n2)cn1	%	113
Nc1ccc(C(=O)Nc2cccc(-c3nc(N4CCOCC4)c4oc5ncccc5c4n3)c2)cn1	%	151
O=C(O)c1ccc(O)c2ncccc12	%	115

Record request: viability value, item CN1CCN(c2cccc(Nc3nc4c(-c5ccc(S(C)(=O)=O)cc5)cccn4n3)c2)CC1
138

Next entry: C[C@@H](Oc1cc(-c2cnn(C3CCNCC3)c2)cnc1N)c1c(Cl)ccc(F)c1Cl
116

Next entry: C#Cc1cccc(Nc2ncnc3cc(OCCOC)c(OCCO)cc23)c1
95.1

* * *

# measurement_notes: viability loss with induced miR-34 in A549 – imaging, A549 dox-inducible miR-34, nuclei and caspase counts, primary screen (AID 1347080)
# stated_conditions: A549 miR-34 inducible, Hoechst nuclei count, 48 h; stronger effect = lower value; cell number ratio, induced over uninduced
Calls of active or inactive are those of the source.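 The calls were made as follows: active = compounds whose cell count with miR-34 switched on is under 0.7 times the count with it off; inactive = the rest.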
measured_quantity: fold change

Record request: fold change value, item O=C(O)COc1ccc(OCCNC[C@@H](O)COc2ccccc2)cc1
0.984 (inactive)

* * *

Attribute: fold change
# measurement_notes: viability loss with induced miR-34 in A549 – imaging, A549 dox-inducible miR-34, nuclei and caspase counts, primary screen (AID 1347080)
# stated_conditions: A549 miR-34 inducible, Hoechst nuclei count, 48 h; measured here: relative caspase fold change +Dox/-Dox

Guide cases for fold change, answers given:
molecule_smiles	observed
Cc1cc(CN2CCN(c3c(Br)cnc4nc(-c5ccc(N6CCN(C)CC6)cc5)[nH]c34)CC2)no1	0.921
Nc1nc2c([nH]c(=O)n2[C@@H]2O[C@H](CO)[C@@H](O)[C@H]2O)c(=O)[nH]1	0.878
CCCCCCCC/C=C\CCCCCCCCOCCOP(=O)([O-])OCC[N+](C)(C)C	0.887

API: the following record is the query input.
Record request: fold change value, item COC(=O)C1=CO[C@@H](O)[C@@H]2C(CO)=CC[C@H]12
0.878
